Parameter inhibition at 0.01 µM: see the listing below.
Target: AurA (Homo sapiens, UniProt O14965)
Construct: purchased Carna Biosciences
Sequence (O14965 whole entry): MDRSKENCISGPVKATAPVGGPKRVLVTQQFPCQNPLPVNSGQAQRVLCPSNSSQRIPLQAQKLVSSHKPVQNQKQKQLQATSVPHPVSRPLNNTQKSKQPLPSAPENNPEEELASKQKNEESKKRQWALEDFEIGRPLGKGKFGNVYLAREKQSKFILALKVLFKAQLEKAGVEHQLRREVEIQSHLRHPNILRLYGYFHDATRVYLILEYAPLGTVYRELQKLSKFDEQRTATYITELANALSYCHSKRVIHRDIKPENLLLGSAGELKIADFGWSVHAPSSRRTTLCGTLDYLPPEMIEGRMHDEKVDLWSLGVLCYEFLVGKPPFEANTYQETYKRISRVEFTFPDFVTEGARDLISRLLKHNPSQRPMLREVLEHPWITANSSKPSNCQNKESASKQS
Experiment: LabChip (Caliper) kinase assay, AurA
Type: biochemical
Conditions: compound at 10 nM, read-out: remaining kinase activity (in %) / percentage of inhibition
measured-parameter: inhibition at 0.01 µM

1. C[C@H]1O[C@@H](n2c3ccccc3c3c4c(c5c6ccccc6[nH]c5c32)C(=O)NC4=O)C[C@@H](O)[C@@H]1O [formula (VI), N^13-1′-β-D-olivosylarcyriaflavin] ... 3%
2. C[C@H]1O[C@@H](n2c3ccccc3c3c4c(c5c6ccccc6[nH]c5c32)CNC4=O)C[C@@H](O)[C@@H]1O [formula (XV), N^13-1′-β-D-olivosyl-k252c] ... 3%
3. C[C@@H]1O[C@@H](n2c3ccccc3c3c4c(c5c6ccccc6[nH]c5c32)C(=O)NC4=O)[C@H](O)[C@H](O)[C@H]1O [formula (III), N^13-1′-β-L-rhamnosylarcyriaflavin] ... 0%
4. C[C@@H]1O[C@@H](n2c3ccccc3c3c4c(c5c6ccccc6[nH]c5c32)CNC4=O)C[C@@H](O)[C@H]1O [formula (XIV), N^13-1′-β-L-digitoxosyl-k252c] ... 1%
5. C[C@@H]1O[C@@H](n2c3ccccc3c3c4c(c5c6ccccc6[nH]c5c32)CNC4=O)C[C@H](O)[C@H]1O [formula (XIII), N^13-1′-β-L-olivosyl-k252c] ... 2%

###

Parameter inhibition at 0.1 µM: see the listing below.
Biological target: MST2 (Homo sapiens, UniProt Q13188)
Construct: purchased Upstate
Sequence (Q13188 whole entry, species assumed): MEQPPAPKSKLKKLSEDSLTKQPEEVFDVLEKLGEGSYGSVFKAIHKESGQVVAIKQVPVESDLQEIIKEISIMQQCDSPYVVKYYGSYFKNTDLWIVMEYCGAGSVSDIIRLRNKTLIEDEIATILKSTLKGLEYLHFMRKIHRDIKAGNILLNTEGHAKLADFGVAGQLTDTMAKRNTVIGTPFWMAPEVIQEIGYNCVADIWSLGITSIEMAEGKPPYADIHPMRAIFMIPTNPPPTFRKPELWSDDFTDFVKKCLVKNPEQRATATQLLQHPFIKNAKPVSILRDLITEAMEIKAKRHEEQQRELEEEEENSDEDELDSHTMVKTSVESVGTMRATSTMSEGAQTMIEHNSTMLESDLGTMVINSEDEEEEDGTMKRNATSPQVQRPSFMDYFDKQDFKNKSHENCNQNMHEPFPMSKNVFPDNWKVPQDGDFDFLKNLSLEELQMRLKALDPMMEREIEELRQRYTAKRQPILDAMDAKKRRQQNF
Assay: LabChip (Caliper) kinase assay, MST2
Type: biochemical
Conditions: compound at 100 nM, read-out: remaining kinase activity (in %) / percentage of inhibition
Description: The analysis of kinase activity described here was performed using LabChip (Caliper Life Sciences), specifically the Caliper LC3000 and the EZ Reader II instruments. The kinase assay used measures the conversion of a fluorescent peptide (substrate) to a phosphorylated product. The reaction mixture, in a microplate well, is introduced by a capillary in a chip where the non-phosphorylated substrate and the phosphorylated product are separated by fluorescence induced by laser. […]
measured-parameter: inhibition at 0.1 µM (%)

1. C[C@@H]1O[C@@H](n2c3ccccc3c3c4c(c5c6ccccc6[nH]c5c32)CNC4=O)[C@H](O)[C@H](O)[C@H]1O [formula (XII), N^13-1′-β-L-rhamnosyl-k252c] ... 19
2. C[C@@H]1O[C@@H](n2c3ccccc3c3c4c(c5c6ccccc6[nH]c5c32)C(=O)NC4=O)C[C@H](O)[C@H]1O ... 15
3. C[C@H]1O[C@@H](n2c3ccccc3c3c4c(c5c6ccccc6[nH]c5c32)C(=O)NC4=O)C[C@@H](O)[C@@H]1O ... 65
4. C[C@@H]1O[C@@H](n2c3ccccc3c3c4c(c5c6ccccc6[nH]c5c32)CNC4=O)C[C@H](O)[C@H]1O [formula (XIII), N^13-1′-β-L-olivosyl-k252c] ... 33
5. C[C@@H]1O[C@@H](n2c3ccccc3c3c4c(c5c6ccccc6[nH]c5c32)C(=O)NC4=O)[C@H](O)[C@H](O)[C@H]1O ... 10
6. C[C@@H]1O[C@@H](n2c3ccccc3c3c4c(c5c6ccccc6[nH]c5c32)CNC4=O)C[C@@H](O)[C@H]1O [formula (XIV), N^13-1′-β-L-digitoxosyl-k252c] ... 34
7. C[C@@H]1O[C@@H](n2c3ccccc3c3c4c(c5c6ccccc6[nH]c5c32)C(=O)NC4=O)C[C@@H](O)[C@H]1O ... 54
8. C[C@H]1O[C@@H](n2c3ccccc3c3c4c(c5c6ccccc6[nH]c5c32)CNC4=O)C[C@@H](O)[C@@H]1O [formula (XV), N^13-1′-β-D-olivosyl-k252c] ... 78
